experiment: Quantitative High-Throughput drug screen in 47 multiple myeloma cell lines against the NCATS MIPE library collection: KMS27_JCRB cell viability assay (AID 1918970); conditions: KMS27 myeloma cells, CellTiter-Glo ATP viability, 48 h; also: nearly all actives have a fitted effect of over 30% in size; also: potency is read from the fitted curve at half-maximal effect
Records with an inconclusive call do not appear. Calls of active or inactive are those of the source. Calls follow the shape of the dose curve; as a rule, active = well fitted cell-killing curve with a large enough effect; inconclusive = small, poorly fitted or top-dose-only effect, or effect the other way; inactive = no such curve, though single readings can be large or run the other way.
Measured parameter: Potency

# example entries with known answers
Compound: Nc1nc2c(c(=O)[nH]1)N(C=O)[C@H](CNc1ccc(C(=O)N[C@@H](CCC(=O)O)C(=O)O)cc1)CN2
Potency: inactive

Compound: COc1cc([C@@H]2c3cc4c(cc3[C@@H](O[C@@H]3O[C@@H]5CO[C@@H](c6cccs6)O[C@@H]5[C@H](O)[C@@H]3O)[C@H]3COC(=O)[C@H]23)OCO4)cc(OC)c1O
Potency: 0.132 µM (active)

Compound: c1ccc(CNc2nc(NCc3ccccc3)c3ccccc3n2)cc1
Potency: 5.9 µM (active)

Compound: O=S(=O)(O)CCSSCCS(=O)(=O)O
Potency: inactive

Compound: C[C@@]12C(=O)OC(=O)[C@@]1(C)C1CCC2O1
Potency: 2.09 µM (active)

List reported Potency for each of these compounds:
1. Cn1cnc(=N)c2[nH]cnc21
2. Cn1cc(C2=C(c3c4n(c5ccccc35)CCC(CN)C4)C(=O)NC2=O)c2ccccc21 (stereo not drawn)
3. Nc1ccc(C(=O)Nc2cccc(-c3nc(N4CCOCC4)c4oc5ncccc5c4n3)c2)cn1

Result string:
1: 0.059 µM (active); 2: 8.33 µM (active); 3: 6.62 µM (active)

List reported Potency for each of these compounds:
1. O=c1[nH]c(=O)n([C@H]2C[C@@H](O)[C@@H](CO)O2)cc1C=CBr
2. C[C@]12C=CC(=O)N[C@@H]1CC[C@H]1[C@H]3CC[C@@H](C(=O)Nc4cc(C(F)(F)F)ccc4C(F)(F)F)[C@@]3(C)CC[C@@H]12
3. CCOC(=O)N1CCN([N+]([O-])=NOc2ccc([N+](=O)[O-])cc2[N+](=O)[O-])CC1

Result string:
["inactive", "inactive", "4.18 µM (active)"]

List reported Potency for each of these compounds:
1. O=C(NNC(=O)c1ccc(CNS(=O)(=O)c2ccc(F)c(Cl)c2)cc1)c1ccccc1
2. C=C1C(=CC=C2CCC[C@]3(C)[C@@H]([C@H](C)CCCC(C)(C)O)CC[C@@H]23)C[C@@H](O)C[C@@H]1O
3. Nc1ccn(C2CO[C@H](CO)O2)c(=O)n1 (stereo partly drawn)
4. COc1ccc(CCC(=O)c2c(O)cc(O[C@@H]3O[C@H](CO)[C@@H](O)[C@H](O)[C@@H]3O[C@@H]3O[C@@H](C)[C@H](O)[C@@H](O)[C@@H]3O)cc2O)cc1O

Result string:
1: inactive; 2: 1.66 µM (active); 3: inactive; 4: inactive

----------
Test: Quantitative High-Throughput drug screen in 47 multiple myeloma cell lines against the NCATS MIPE library collection: OCIMY1_PLB cell viability assay (AID 1918979); also: nearly all actives have a fitted effect of over 35% in size
Conditions: OCI-MY1 myeloma viability, CellTiter-Glo ATP, 48 h; series mostly up to 45.8 µM
Excerpt: PI: Beverly A. Mock Ph.D. Laboratory of Cancer Biology and Genetics, Center for Cancer Research, National Cancer Institute, National Institute of Health, Bethesda, Maryland […] 5; Detector; 425V; Luminescence; Viewlux PerkinElmer. […] 1. […] Briefly, the corresponding myeloma cell lines were screened in 1,536-well plates with 500 cells, 5-uL per well for inhibition of cell viability (assessed by measuring ATP levels with CellTiterGlo). […]
Inconclusive results are not listed. The source made the active and inactive calls. Calls follow the shape of the dose curve; as a rule, active = well fitted cell-killing curve with a large enough effect; inconclusive = small, poorly fitted or top-dose-only effect, or effect the other way; inactive = no such curve, though single readings can be large or run the other way.
Outcomes you can answer with include only these: active, inactive

Query string: Call for entry Nc1nc(=O)n([C@H]2CSC(CO)O2)cc1F (some centres undefined) :
Result string: inactive

Query string: Now consider CC(C)C[C@H](NC(=O)CNC(=O)c1cc(Cl)ccc1Cl)B1OC(=O)CC(CC(=O)O)(C(=O)O)O1 (some centres undefined) and answer again.
Result string: active

Query string: Now consider COc1ccc(CCC(=O)c2c(O)cc(O[C@@H]3O[C@H](CO)[C@@H](O)[C@H](O)[C@@H]3O[C@@H]3O[C@@H](C)[C@H](O)[C@@H](O)[C@@H]3O)cc2O)cc1O and answer again.
Result string: inactive

Query string: Now consider Cn1cc(CNCC2CCN(c3ncc(C(=O)NO)cn3)CC2)c2ccccc21 and answer again.
Result string: active

----------
Assay: qHTS of pediatric cancer cell lines to identify multiple opportunities for drug repurposing: Primary screen for Saos-2 cells (AID 1347097); also: nearly all actives have a fitted effect of over 40% in size
Conditions: Saos-2 viability, CellTiter-Glo ATP luminescence, 48 h; series mostly up to 46 µM
Procedure: Drug repurposing or repositioning has been offered as a strategy for drug development in oncology programs. This approach has special potential for childhood cancers and other rare or orphan diseases, where the expected return on new drug development has been a disincentive to pharmaceuticals. […] We employed a titration-based paradigm (quantitative high-throughput screening or qHTS), where all compounds were tested at multiple concentrations for their effect on cell viability. […]
Records with an inconclusive call do not appear. The source made the active and inactive calls. Calls come from the whole dose curve; as a rule, active = well fitted cell-killing curve with a large enough effect; inconclusive = small, poorly fitted or top-dose-only effect; inactive = no such curve, though single readings can be large or run the other way.
Outcomes you can answer with include only these: active, inactive

Compound: COc1ccnc2[nH]cc(C(=O)C(=O)N3CCN(C(=O)c4ccccc4)C[C@@H]3C)c12
Label value: inactive

Compound: CC(=O)O[C@H]1C[C@@H]2CC[C@H]3[C@H]4C[C@H]([N+]5(C)CCCCC5)[C@@H](OC(C)=O)[C@@]4(C)CC[C@@H]3[C@@]2(C)C[C@H]1N1CCCCC1
Label value: inactive

Compound: CCc1ccc(C(=O)Nc2cc(CN3CCN(C)CC3)cc(C(F)(F)F)c2)cc1C#Cc1cnc2ccnn2c1
Label value: active

Compound: CON=C(C(=O)N[C@@H]1C(=O)N2C(C(=O)O)=C(Cn3ccc(=N)n3CCO)CS[C@H]12)c1csc(N)n1
Label value: inactive

Here is the next item to consider.
Query string: Call for entry CC(=O)O[C@H]1C[C@@H]2CC[C@H]3[C@H]4C[C@H]([N+]5(C)CCCCC5)[C@@H](OC(C)=O)[C@@]4(C)CC[C@@H]3[C@@]2(C)C[C@H]1[N+]1(C)CCCCC1 :
Result string: inactive

----------
assay: Quantitative High-Throughput drug screen in 47 multiple myeloma cell lines against the NCATS MIPE library collection: KMS12PE_JCRB cell viability assay (AID 1918972); conditions: KMS12PE myeloma viability, CellTiter-Glo ATP, 48 h; series mostly up to 45.8 µM; also: nearly all actives have a fitted effect of over 30% in size
Results filed as inconclusive are left out. Activity calls are given as the source filed them. Calls follow the shape of the dose curve; as a rule, active = well fitted cell-killing curve with a large enough effect; inconclusive = small, poorly fitted or top-dose-only effect, or effect the other way; inactive = no such curve, though single readings can be large or run the other way. Non-standard residues stand in square brackets, D forms with d. Residues, ends and D or L forms follow the SMILES beside them. *: point of attachment. Nva = CCC[C@H](N)C(=O)O; Cbz = O=C(OCc1ccccc1)*
Outcomes you can answer with include only these: active, inactive

Worked examples follow.
Compound: COc1cc2c(cc1OC)[C@@H]1C(=O)c3ccc4c(c3O[C@@H]1CO2)C=CC(C)(C)O4
Label value: active
--
Compound: CCN(CC)CCNC(=O)c1c(C)[nH]c(C=C2C(=O)Nc3ccc(F)cc32)c1C
Label value: active
--
Compound: Cc1cnc(NC(=O)Nc2cc(Br)c(C)cc2OC[C@@H]2CNCCO2)cn1
Label value: active
--
Compound: NC(=O)Nc1cc(-c2ccc(CN3CCOCC3)cc2)sc1C(N)=O
Label value: active

Query string: Call for entry CCC[C@@H](C=O)NC(=O)[C@H](CC(C)C)NC(=O)[C@H](CC(C)C)NC(=O)OCc1ccccc1 (Cbz-Leu-Leu-[Nva]-aldehyde) :
Result string: active

Query string: Now consider CN1[C@H]2CC(OC(=O)[C@@H](CO)c3ccccc3)C[C@H]1[C@H]1O[C@H]12 (stereo partly specified) and answer again.
Result string: inactive

----------
experiment: qHTS of pediatric cancer cell lines to identify multiple opportunities for drug repurposing: Primary screen for Saos-2 cells (AID 1347097); conditions: Saos-2 viability, CellTiter-Glo ATP luminescence, 48 h; series mostly up to 46 µM; also: nearly all actives have a fitted effect of over 40% in size
Records with an inconclusive call do not appear. Active and inactive are the calls of the source. Calls follow the shape of the dose curve; as a rule, active = well fitted cell-killing curve with a large enough effect; inconclusive = small, poorly fitted or top-dose-only effect; inactive = no such curve, though single readings can be large or run the other way.
Outcomes you can answer with include only these: active, inactive

Chem smiles: CCOc1cc2ncc(C#N)c(Nc3ccc(OCc4ccccn4)c(Cl)c3)c2cc1NC(=O)C=CCN(C)C
Label value: active
//
Chem smiles: CC(C)(N)c1ccc(-c2nc3ccccc3nc2-c2ccccc2)cc1
Label value: active
//
Chem smiles: CCS(=O)(=O)Nc1ccc2[nH]c(O)c(C(=Nc3ccc(CN4CCCCC4)cc3)c3ccccc3)c2c1
Label value: active
//
Chem smiles: NC1=N[C@H]2[C@H](CS[C@H]2CCCCC(=O)O)N1
Label value: inactive

Query string: Call for entry O=C1NCCc2[nH]c(-c3ccncc3)cc21 :
Result string: active

----------
test system: PAD; experiment: qHTS profiling for inhibitors of Plasmodium falciparum proliferation (AID 504749); also: nearly all actives have a fitted effect of over 60% in size; settings: P. falciparum in erythrocytes, SYBR Green DNA, 72 h; series mostly up to 28.7 µM
Records with an inconclusive call do not appear. Active and inactive are the calls of the source. The call rests on the fitted dose curve; in most records, active means well fitted inhibition curve with a large enough effect; inconclusive means small, poorly fitted or top-dose-only effect; inactive means flat fitted curve, though single readings scatter.
Outcomes you can answer with include only these: active, inactive

Worked examples follow.
Compound: OCC(O)C(O)C(O)CO (centres undefined)
Label value: inactive
//
Compound: COc1ccc([C@@H]2CNC(=O)C2)cc1OC1CCCC1
Label value: inactive
//
Compound: COc1cccc2c1C(=O)c1c(O)c3c(c(O)c1C2=O)C[C@@](O)(C(=O)CO)C[C@@H]3O[C@H]1C[C@H](N)[C@H](OC2CCCCO2)[C@H](C)O1 (some centres undefined)
Label value: active

Here is the next item to consider.
Query string: Call for entry COc1ccc2c(c1OC)C(=O)OC2[C@H]1c2c(cc3c(c2OC)OCO3)CCN1C (some centres undefined) :
Result string: inactive

// data source = PubChem BioAssay (NCATS)
